Assay read-out IC50 on Sphingosine kinase 1 (Homo sapiens); records merged from the literature.
Sequence (Q9NYA1 whole entry): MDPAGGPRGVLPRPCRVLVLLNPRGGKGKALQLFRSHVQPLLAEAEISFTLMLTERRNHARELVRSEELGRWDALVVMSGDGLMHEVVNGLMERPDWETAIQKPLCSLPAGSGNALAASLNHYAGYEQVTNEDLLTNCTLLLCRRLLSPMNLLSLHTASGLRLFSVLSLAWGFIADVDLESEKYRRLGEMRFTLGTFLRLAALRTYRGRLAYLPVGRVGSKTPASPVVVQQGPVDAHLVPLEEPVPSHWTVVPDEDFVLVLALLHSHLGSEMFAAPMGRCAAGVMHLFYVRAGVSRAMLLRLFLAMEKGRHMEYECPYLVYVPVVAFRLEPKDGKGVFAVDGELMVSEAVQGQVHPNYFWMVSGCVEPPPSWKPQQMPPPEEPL

Below, 2 molecules whose answers are already recorded.
# MOLECULE, IC50
records = [
    ("NC(=O)[C@H]1CCCN1Cc1ccc(COc2cccc(OCc3ccccc3)c2)cc1", "0.924 µM"),
    ("COc1ncc(-c2cc3c(c(NC(=O)CN4CCOCC4)c2)COC3)cc1NS(C)(=O)=O", "> 10 µM"),
]

Then this molecule:
Reported IC50, molecule OCCC1CCCCN1CCc1ccc(Nc2nc(-c3ccc4ccccc4c3)cs2)cc1 (stereo not drawn) : ____
> 10 µM
